Assay notes: protein stability index of a GFP-peptide fusion (GPS, HEK-293T) (PSI 1-6); higher = more stable;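 note: 24-mer peptide tiles fused after GFP, lentivirally expressed, FACS-sorted into six equal bins by GFP/DsRed ratio, decoded by Illumina sequencing, PSI is the read-weighted mean bin number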
Condition context: treatment: DMSO; c terminus: a fixed tail appended
Would you mind telling me the reported protein stability index of each entry?
Numbers only.

| Primary sequence | protein stability index |
| --- | --- |
| KEVFASRISNPSDDNSCEDLEEER [PCMTD2] | 5.55 |
| CDELELHQRFLREGRFWKSKNEDR [ZMYND11] | 4.29 |
| NNIMKCRSRYDGHRIWMYNCHIGG [LOXL2] | 2.5 |

For the 2 sequences below, give their protein stability index values.
1. LAKTGEGSYGVVFKCRNKTSGQVV [CDKL4]
2. NYFSAMYSSEDSTLASVPPAATFG [ELF3]

### Response
[2.72, 3.06]

For the 3 sequences below, give their protein stability index values.
1. KLALDMEISAYRKLLQGEEERLKL [LMNB1]
2. LLDIKTRLEQEIATYRSLLEGQDA [KRT13]
3. DALPGQSKRLAVPCKLEKMRILAH [TLE6]

### Response
3.24
3.45
2.39
